compounds and their reported EC90
System: Nonstructural protein 5A (Hepatitis C virus), Q5L478 [Y93H]
Sequence (Q5L478 entry or part of it Y93H): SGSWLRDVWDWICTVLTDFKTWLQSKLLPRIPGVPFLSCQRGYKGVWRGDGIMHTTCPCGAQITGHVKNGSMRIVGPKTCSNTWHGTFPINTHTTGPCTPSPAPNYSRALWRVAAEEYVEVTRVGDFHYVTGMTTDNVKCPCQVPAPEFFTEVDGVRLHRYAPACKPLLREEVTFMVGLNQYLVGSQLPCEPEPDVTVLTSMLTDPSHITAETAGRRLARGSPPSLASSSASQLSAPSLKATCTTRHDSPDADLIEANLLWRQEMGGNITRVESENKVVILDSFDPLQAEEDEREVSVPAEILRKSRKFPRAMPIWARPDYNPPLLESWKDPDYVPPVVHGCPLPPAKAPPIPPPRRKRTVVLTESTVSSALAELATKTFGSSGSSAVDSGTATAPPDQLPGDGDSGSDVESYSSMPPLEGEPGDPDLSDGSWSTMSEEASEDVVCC
Protocol Summary: Inhibition of HCV GT1a NS5A Y93H mutant assessed as suppression of replicon RNA level by real-time PCR analysis
Details: Hepatitis C virus subtype 1a
Readout Kind: EC90 (nM)

1) COC(=O)N[C@H](C(=O)N1CCC[C@H]1c1ncc(-c2ccc3c(c2)OCn2c-3cc3cc(-c4cnc([C@@H]5CCCN5C(=O)[C@@H](NC(=O)OC)C(C)C)[nH]4)ccc32)[nH]1)C(C)C: 100
2) COC(=O)N[C@H](C(=O)N1CCC[C@H]1c1ncc(-c2cc(F)c3c(c2)OC(c2ccc(OC)cc2)n2c-3cc3cc(-c4cnc([C@@H]5CCCN5C(=O)[C@@H](NC(=O)OC)C(C)C)[nH]4)ccc32)[nH]1)C(C)C (some centres undefined): 3
3) COC(=O)N[C@H](C(=O)N1CCC[C@H]1c1ncc(-c2ccc3c(c2)OC(c2ccccc2)n2c-3c(F)c3cc(-c4cnc([C@@H]5C[C@@H](F)CN5C(=O)[C@@H](NC(=O)OC)C(C)C)[nH]4)ccc32)[nH]1)C(C)C (mixture of isomers): 2
4) COC(=O)N[C@H](C(=O)N1CCC[C@H]1c1ncc(-c2cc(F)c3c(c2)OC(c2cccc(OC(C)C)c2)n2c-3cc3cc(-c4cnc([C@@H]5CCCN5C(=O)[C@@H](NC(=O)OC)C(C)C)[nH]4)ccc32)[nH]1)C(C)C (some centres undefined): 6
5) COC(=O)N[C@H](C(=O)N1CCC[C@H]1c1ncc(-c2ccc3c(c2)cc2n3C(c3cccc(OC)c3)Oc3cc(-c4cnc([C@@H]5C[C@@H](F)CN5C(=O)[C@@H](NC(=O)OC)C(C)C)[nH]4)cc(F)c3-2)[nH]1)C(C)C (some centres undefined): 0.6
6) COC(=O)N[C@H](C(=O)N1CCC[C@H]1c1ncc(-c2cc(F)c3c(c2)O[C@@H](c2ccccc2)n2c-3c(Cl)c3cc(-c4cnc([C@@H]5CCCN5C(=O)[C@@H](NC(=O)OC)C(C)C)[nH]4)ccc32)[nH]1)C(C)C: 51
7) COC(=O)N[C@H](C(=O)N1C[C@H](F)C[C@H]1c1ncc(-c2cc(F)c3c(c2)OC(c2cccc(OC)c2)n2c-3cc3cc(-c4cnc([C@@H]5C[C@@H](F)CN5C(=O)[C@@H](NC(=O)OC)C(C)C)[nH]4)ccc32)[nH]1)C(C)C (some centres undefined): 0.07
8) CCCCOc1cccc(C2Oc3cc(-c4cnc([C@@H]5C[C@@H](F)CN5C(=O)[C@@H](NC(=O)OC)C(C)C)[nH]4)cc(F)c3-c3cc4cc(-c5cnc([C@@H]6C[C@@H](F)CN6C(=O)[C@@H](NC(=O)OC)C(C)C)[nH]5)ccc4n32)c1 (some centres undefined): 0.1

###

molecules and their reported EC90
System: Nonstructural protein 5A (Hepatitis C virus), Q5L478 [Y93H]
Protocol Summary: Inhibition of HCV GT1a NS5A Y93H mutant assessed as suppression of replicon RNA level by real-time PCR analysis
Details: Hepatitis C virus subtype 1a
Readout Kind: EC90 (nM)

1) COC(=O)N[C@H](C(=O)N1CCC[C@H]1c1ncc(-c2ccc3c(c2)OCn2c-3cc3cc(-c4cnc([C@@H]5CCCN5C(=O)[C@@H](NC(=O)OC)C(C)C)[nH]4)cc(F)c32)[nH]1)C(C)C: 139
2) COC(=O)N[C@H](C(=O)N1C[C@H](F)C[C@H]1c1ncc(-c2cc(F)c3c(c2)OC(c2ccc(OC(F)(F)F)cc2)n2c-3cc3cc(-c4cnc([C@@H]5C[C@@H](F)CN5C(=O)[C@@H](NC(=O)OC)C(C)C)[nH]4)ccc32)[nH]1)C(C)C (some centres not stated): 0.2
3) COC(=O)N[C@H](C(=O)N1CCC[C@H]1c1ncc(-c2ccc3c(c2)OCn2c-3c(Cc3ccccc3)c3cc(-c4cnc([C@@H]5CCCN5C(=O)[C@@H](NC(=O)OC)C(C)C)[nH]4)ccc32)[nH]1)C(C)C: 187
4) COC(=O)N[C@H](C(=O)N1CCC[C@H]1c1ncc(-c2ccc3c(c2)OC(c2cc(OC)cc(OC)c2)n2c-3cc3cc(-c4cnc([C@@H]5CCCN5C(=O)[C@@H](NC(=O)OC)C(C)C)[nH]4)ccc32)[nH]1)C(C)C (some centres not stated): 8
5) COC(=O)N[C@H](C(=O)N1CCC[C@H]1c1ncc(-c2ccc3c(c2)OCn2c-3c(-c3ccccc3)c3cc(-c4cnc([C@@H]5CCCN5C(=O)[C@@H](NC(=O)OC)C(C)C)[nH]4)ccc32)[nH]1)C(C)C: 5000
6) COC(=O)N[C@H](C(=O)N1C[C@H](F)C[C@H]1c1ncc(-c2cc(F)c3c(c2)OC(c2cccc(O[C@@H]4CCOC4)c2)n2c-3cc3cc(-c4cnc([C@@H]5C[C@@H](F)CN5C(=O)[C@@H](NC(=O)OC)C(C)C)[nH]4)ccc32)[nH]1)C(C)C (mixture of isomers): 1
7) COC(=O)N[C@H](C(=O)N1CCC[C@H]1c1ncc(-c2ccc3c(c2)cc2n3C(c3cccc(OC(F)(F)F)c3)Oc3cc(-c4cnc([C@@H]5C[C@@H](F)CN5C(=O)[C@@H](NC(=O)OC)C(C)C)[nH]4)ccc3-2)[nH]1)C(C)C (some centres not stated): 1.7
8) COC(=O)N[C@H](C(=O)N1CCC[C@H]1c1ncc(-c2cc3c(c(C4CC4)c2)-c2cc4cc(-c5cnc([C@@H]6CCCN6C(=O)[C@@H](NC(=O)OC)C(C)C)[nH]5)ccc4n2CO3)[nH]1)C(C)C: 890
9) COC(=O)N[C@H](C(=O)N1C[C@H](F)C[C@H]1c1ncc(-c2cc(F)c3c(c2)OC(c2ccccc2)n2c-3cc3cc(-c4cnc([C@@H]5C[C@@H](F)CN5C(=O)[C@@H](NC(=O)OC)C(C)C)[nH]4)ccc32)[nH]1)C(C)C (mixture of isomers): 0.08
10) COC(=O)N[C@H](C(=O)N1C[C@H](F)C[C@H]1c1ncc(-c2ccc3c(c2)OC(c2ccccc2)n2c-3cc3cc(-c4cnc([C@@H]5C[C@@H](F)CN5C(=O)[C@@H](NC(=O)OC)C(C)C)[nH]4)ccc32)[nH]1)C(C)C (mixture of isomers): 2
11) COC(=O)N[C@H](C(=O)N1CCC[C@H]1c1ncc(-c2cc(F)c3c(c2)OC(c2ccccc2)n2c-3cc3cc(-c4cnc([C@@H]5C[C@@H](F)CN5C(=O)[C@@H](NC(=O)OC)C(C)C)[nH]4)ccc32)[nH]1)C(C)C (mixture of isomers): 4
12) COC(=O)N[C@H](C(=O)N1CCC[C@H]1c1ncc(-c2ccc3c(c2)OCn2c-3c(C3CC3)c3cc(-c4cnc([C@@H]5CCCN5C(=O)[C@@H](NC(=O)OC)C(C)C)[nH]4)ccc32)[nH]1)C(C)C: 100
13) COC(=O)N[C@H](C(=O)N1CCC[C@H]1c1ncc(-c2ccc3c(c2)cc2n3C(c3cccc(OC(C)C)c3)Oc3cc(-c4cnc([C@@H]5C[C@@H](F)CN5C(=O)[C@@H](NC(=O)OC)C(C)C)[nH]4)cc(F)c3-2)[nH]1)C(C)C (some centres not stated): 0.9
14) COC(=O)N[C@H](C(=O)N1CCC[C@H]1c1ncc(-c2ccc3c(c2)OC(c2cccc(OC)c2)n2c-3cc3cc(-c4cnc([C@@H]5CCCN5C(=O)[C@@H](NC(=O)OC)C(C)C)[nH]4)ccc32)[nH]1)C(C)C (some centres not stated): 8
15) COC(=O)N[C@H](C(=O)N1CCC[C@H]1c1ncc(-c2ccc3c(c2)OC(c2cc(Cl)cc(OC)c2)n2c-3cc3cc(-c4cnc([C@@H]5CCCN5C(=O)[C@@H](NC(=O)OC)C(C)C)[nH]4)ccc32)[nH]1)C(C)C (mixture of isomers): 15
16) COC(=O)N[C@H](C(=O)N1CCC[C@H]1c1ncc(-c2ccc3c(c2)cc2n3C(c3ccccc3)Oc3cc(-c4cnc([C@@H]5C[C@@H](F)CN5C(=O)[C@@H](NC(=O)OC)C(C)C)[nH]4)cc(F)c3-2)[nH]1)C(C)C (mixture of isomers): 1
17) CCOc1cccc(C2Oc3cc(-c4cnc([C@@H]5C[C@@H](F)CN5C(=O)[C@@H](NC(=O)OC)C(C)C)[nH]4)cc(F)c3-c3cc4cc(-c5cnc([C@@H]6CCCN6C(=O)[C@@H](NC(=O)OC)C(C)C)[nH]5)ccc4n32)c1 (some centres not stated): 0.4

###

Assayed Target: Nonstructural protein 5A (Hepatitis C virus) (UniProt Q5L478)
Sequence (Q5L478 as listed by the source): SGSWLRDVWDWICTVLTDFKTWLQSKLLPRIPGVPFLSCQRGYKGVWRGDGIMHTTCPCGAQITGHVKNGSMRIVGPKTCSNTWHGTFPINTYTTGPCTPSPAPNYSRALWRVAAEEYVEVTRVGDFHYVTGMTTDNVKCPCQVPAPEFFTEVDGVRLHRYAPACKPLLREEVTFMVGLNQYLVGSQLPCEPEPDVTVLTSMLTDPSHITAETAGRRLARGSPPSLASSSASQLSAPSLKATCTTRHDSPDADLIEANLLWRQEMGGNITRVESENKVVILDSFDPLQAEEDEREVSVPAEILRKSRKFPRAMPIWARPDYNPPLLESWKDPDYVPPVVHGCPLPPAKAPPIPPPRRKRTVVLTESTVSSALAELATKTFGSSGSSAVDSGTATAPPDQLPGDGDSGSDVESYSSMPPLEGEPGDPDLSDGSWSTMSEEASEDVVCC
Protocol Summary: Inhibition of HCV GT4a NS5A assessed as suppression of replicon RNA level by real-time PCR analysis
Details: Hepatitis C virus subtype 4a
Readout Kind: EC90 (nM)

1. COC(=O)N[C@H](C(=O)N1CCC[C@H]1c1ncc(-c2ccc3c(c2)OCn2c-3c(C3CC3)c3cc(-c4cnc([C@@H]5CCCN5C(=O)[C@@H](NC(=O)OC)C(C)C)[nH]4)ccc32)[nH]1)C(C)C: 0.3
2. COC(=O)N[C@H](C(=O)N1CCC[C@H]1c1nc(-c2ccc3c(c2)O[C@@H](c2ccccc2)n2c-3cc3cc(-c4c[nH]c([C@@H]5CCCN5C(=O)[C@@H](NC(=O)OC)C(C)C)n4)ccc32)c[nH]1)C(C)C: 0.016
3. COC(=O)N[C@H](C(=O)N1CCC[C@H]1c1ncc(-c2cc(F)c3c(c2)OC(c2ccccc2)n2c-3cc3cc(-c4cnc([C@@H]5C[C@@H](F)CN5C(=O)[C@@H](NC(=O)OC)C(C)C)[nH]4)ccc32)[nH]1)C(C)C (mixture of isomers): 0.05
4. COC(=O)N[C@H](C(=O)N1CCC[C@H]1c1ncc(-c2ccc3c(c2)OCn2c-3c(-c3ccccc3)c3cc(-c4cnc([C@@H]5CCCN5C(=O)[C@@H](NC(=O)OC)C(C)C)[nH]4)ccc32)[nH]1)C(C)C: 0.09
5. COC(=O)N[C@H](C(=O)N1CCC[C@H]1c1ncc(-c2ccc3c(c2)OC(c2ccccc2)n2c-3c(F)c3cc(-c4cnc([C@@H]5C[C@@H](F)CN5C(=O)[C@@H](NC(=O)OC)C(C)C)[nH]4)ccc32)[nH]1)C(C)C (mixture of isomers): 0.1
6. COC(=O)N[C@H](C(=O)N1CCC[C@H]1c1ncc(-c2ccc3c(c2)c(F)c2n3C(c3ccccc3)Oc3cc(-c4cnc([C@@H]5C[C@@H](F)CN5C(=O)[C@@H](NC(=O)OC)C(C)C)[nH]4)ccc3-2)[nH]1)C(C)C (some centres undefined): 0.04
7. COC(=O)N[C@H](C(=O)N1C[C@H](F)C[C@H]1c1ncc(-c2ccc3c(c2)OC(c2ccccc2)n2c-3cc3cc(-c4cnc([C@@H]5C[C@@H](F)CN5C(=O)[C@@H](NC(=O)OC)C(C)C)[nH]4)ccc32)[nH]1)C(C)C (mixture of isomers): 0.2
8. COC(=O)N[C@H](C(=O)N1CCC[C@H]1c1ncc(-c2ccc3c(c2)OCn2c-3cc3cc(-c4cnc([C@@H]5CCCN5C(=O)[C@@H](NC(=O)OC)C(C)C)[nH]4)ccc32)[nH]1)C(C)C: 0.2
9. COC(=O)N[C@H](C(=O)N1CCC[C@H]1c1ncc(-c2ccc3c(c2)OCn2c-3cc3cc(-c4cnc([C@@H]5CCCN5C(=O)[C@@H](NC(=O)OC)C(C)C)[nH]4)c(F)cc32)[nH]1)C(C)C: 0.2
